target-system: mouse ACVR2A (mouse, UniProt P27038 20-135, limits assumed); also: test concentration or dose not given here
Sequence (P27038 20-135 limits assumed): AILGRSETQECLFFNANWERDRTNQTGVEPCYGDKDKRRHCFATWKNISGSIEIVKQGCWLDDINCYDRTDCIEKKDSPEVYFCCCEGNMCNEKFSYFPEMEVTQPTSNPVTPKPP
assay-summary: ELISA
Catalogue of optical density values
Just the number in OD, nothing appended.

For 368_B10 (antibody, V domains shown, Group I) VH: EVQLLESGGGLVQPGGSLRLSCAASGFTFDSYGMHWVRQAPGKGLEWVASINYNGGYTSYADSVKGRFTISRDNSKNTLYLQMNSLRAEDTAVYYCARAANWHDTALDYWGQGTLVTVSS VL: DIQMTQSPSSLSASVGDRVTITCRASQSILTYLNWYQQKPGKAPKLVIYAATSRASGVPSRFSGSGSGTDFTLTISSLQPEDFATYYCQQSDELPLTFGGGTKVEIK , what is its reported optical density?
2.42

Also check 375_H01 (antibody, V domains shown, Group I) VH: EVQLLESGGGLVQPGGSLRLSCAASGFTFSDYSMNWVRQAPGKGLEWVAGINYNSGYTSYADSVKGRFTISRDNSKNTLYLQMNSLRAEDTAVYYCARAANWHDTHLDYWGQGTLVTVSS VL: DIQMTQSPSSLSASVGDRVTITCRASQSILTYLNWYQQKPGKAPKLLIYAATSRHSGVPSRFSGSGSGTDFTLTISSLQPEDFATYYCQQSYSNPLTFGGGTKVEIK
3.06

Also check 366_G06 (antibody, V domains shown, Group I) VH: EVQLLESGGGLVQPGGSLRLSCAASGFTFSSYGMHWVRQAPGKGLEWVASINYNGGYTGYADSVKGRFTISRDNSKNTLYLQMNSLRAEDTAVYYCARAANWHDTHLDYWGQGTLVTVSS VL: DIQMTQSPSSLSASVGDRVTITCRASQSIVSYVNWYQQKPGKAPKLVIYAATSRASGVPSRFSGSGSGTDFTLTISSLQPEDFATYYCQQSYDNPLTFGGGTKVEIK
2.82

Also check 365_G06 (antibody, V domains shown, Group II) VH: EVQLLESGGGLVQPGGSLRLSCAASGFTFDSYGMHWVRQAPGKGLEWVAGINYNGGYTSYADSVKGRFTISRDNSKNTLYLQMNSLRAEDTAVYYCARAATWHDTHLDYWGQGTLVTVSS VL: DIQMTQSPSSLSASVGDRVTITCRASQSILSYLNWYQQKPGKAPKLLIYAATSLASGVPSRFSGSGSGTDFTLTISSLQPEDFATYYCQQSDSTPLTFGGGTKVEIK
2.02

Also check 370_B01 (antibody, V domains shown, Group I) VH: EVQLLESGGGLVQPGGSLRLSCAASGFTFDDYGMHWVRQAPGKGLEWVSGINYNGGYKSYADSVKGRFTISRDNSKNTLYLQMNSLRAEDTAVYYCARAANWHDTALDYWGQGTLVTVSS VL: DIQMTQSPSSLSASVGDRVTITCRASQSILSYVNWYQQKPGKAPKLLIYVASSRASGVPSRFSGSGSGTDFTLTISSLQPEDFATYYCQQSYSLPLTFGGGTKVEIK
3.47
